TARGET SYSTEM: NEDD8 (UniProt Q15843 1-76)
ASSAY PROTOCOL: NMR titration
READOUT KIND: pKd
By convention, pKd is the negative base-10 log of a molar concentration.

Value of pKd reported for the binder AAEDQVPCEKCGSLVPVWDMPEHMDYHFALELQKS (domain or fragment) [UBZ domain of Pol η (amino acids 628–662)] is 3.17
